- Tested target: hCA I (Homo sapiens, UniProt P00915)
- Construct: gene CA1; recombinant, obtained in-house
- Sequence (P00915 2-261): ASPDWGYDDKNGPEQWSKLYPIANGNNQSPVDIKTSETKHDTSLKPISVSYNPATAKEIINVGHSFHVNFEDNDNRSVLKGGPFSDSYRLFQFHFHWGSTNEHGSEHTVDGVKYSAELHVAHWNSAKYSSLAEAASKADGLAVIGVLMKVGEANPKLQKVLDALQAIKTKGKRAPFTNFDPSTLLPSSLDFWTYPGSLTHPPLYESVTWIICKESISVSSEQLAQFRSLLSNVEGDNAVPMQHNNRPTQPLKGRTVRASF
- Assay details: stopped-flow CO2 hydrase assay
- Format: biochemical
- Condition parameters: read-out: KI (nM) ^1 / CAI
Reported endpoint: Ki (nM)

NS(=O)(=O)c1ccc(C(=O)N2CCC(C(=O)N/N=C/c3ccc(F)cc3)CC2)cc1	340
NS(=O)(=O)c1ccc(C(=O)N2CCC(C(=O)N/N=C/c3cccc(Cl)c3)CC2)cc1	398
NS(=O)(=O)c1ccc(C(=O)N2CCC(C(=O)N/N=C/c3ccc([N+](=O)[O-])cc3)CC2)cc1	384
NS(=O)(=O)c1ccc(C(=O)N2CCC(C(=O)N/N=C/c3ccc(Cl)cc3Cl)CC2)cc1	336
COc1cccc(/C=N/NC(=O)C2CCN(C(=O)c3ccc(S(N)(=O)=O)cc3)CC2)c1	382

Data origin: paper PMC9822402
